// provenance: PubChem BioAssay (EPA / NIEHS)

read-out: Actin alpha 1 (ACTA1), ACTA1 (gene 58); test: BSK_MyoF_ACTA1: BioMAP Diversity Plus: MyoF Assay for Actin alpha 1 (ACTA1) Biomarker Activity (AID 2284244); conditions: primary human lung fibroblasts
Activity calls are given as the source filed them. How the source made its calls: active means hit-call score of the fitted dose curve at least 0.9, where 1 is the maximum; inactive means score below 0.9.
Labels: t for active, f for inactive

compound | discrete-label
C=CC(F)(F)C(F)(F)C(F)(F)C(F)(F)C(F)(F)C(F)(F)C(F)(F)C(F)(F)F | f
O=S(=O)(OCC(F)F)C(F)(F)F | f
CC(C)(C)C(=O)CC(=O)C(F)(F)C(F)(F)C(F)(F)F | f
CCCCCCC(C)OC(=O)CCCCC(=O)OC(C)CCCCCC (configuration not stated) | f
OCC(F)(F)C(F)(F)C(F)(F)F | f
N=C(N)C(F)(F)C(F)(F)C(F)(F)C(F)(F)C(F)(F)C(F)(F)C(F)(F)F | f
O=C(O)C(F)(F)C(F)(F)C(F)(F)F | f
OCC(F)(F)C(F)(F)C(F)(F)C(F)(F)C(F)(F)C(F)F | f
FC(F)(F)C(F)(F)C(F)(F)C(F)(F)C(F)(F)C(F)(F)CC1CO1 (configuration not stated) | f
O=C(O)C(F)(F)C(F)(F)OC(F)(F)F | f
CO[Si](OC)(c1ccccc1)c1ccccc1 | t
O=S(=O)(OCCOC(F)(F)F)C(F)(F)F | f

* * *

target: Retinoic acid receptor alpha (Homo sapiens); experiment: ATG_DR5_RAR_CIS: Attagene CIS-FACTORIAL HepG2 Assay for human Retinoic Acid Receptor Alpha (RARE), DR5 submotif (AID 2282934); settings: HepG2 Attagene cis-factorial RARE DR5 reporter, mRNA; actives raise or lower the signal
The source made the active and inactive calls. How the source made its calls: active means hit-call score of the fitted dose curve at least 0.9, where 1 is the maximum; inactive means score below 0.9.
Labels: t for active, f for inactive

compound | discrete-label
CCc1ccc(C(c2ccc(CC)cc2)C(Cl)Cl)cc1 | f
[Co] | f
Cc1ccc(S(=O)(=O)OCC(F)(F)C(F)(F)C(F)(F)C(F)(F)C(F)(F)C(F)F)cc1 | f
OCC(F)(F)C(F)(F)C(F)(F)F | f
CC(CCl)OP(=O)(OC(C)CCl)OC(C)CCl (stereo unspecified) | f
CCO[Si](CCC(F)(F)C(F)(F)C(F)(F)C(F)(F)C(F)(F)C(F)(F)F)(OCC)OCC | f
Cc1cc(C)cc(O)c1 | f
OCCCC(F)(F)C(F)(F)C(F)(F)F | f
N=C(N)C(F)(F)C(F)(F)C(F)(F)C(F)(F)C(F)(F)C(F)(F)C(F)(F)F | f
Nc1ccc([N+](=O)[O-])cc1O | f
O=C(O)C(F)(F)C(F)(F)OC(F)(F)F | f
O=C(O)C(F)(F)C(F)(F)C(F)(F)F | f
O=C(O)C=C(C(F)(F)F)C(F)(F)F | f
Cc1cccc(N(C)C)c1 | f
O=C(O)C(F)(OC(F)(F)C(F)(OC(F)(F)C(F)(F)C(F)(F)F)C(F)(F)F)C(F)(F)F (stereo unspecified) | f
c1ccc(B(c2ccccc2)c2ccccc2)cc1 | f
Nc1cc(Cl)c(N)c(Cl)c1 | f
O=C(Cl)C(F)(F)C(F)(F)C(F)(F)C(F)(F)C(F)(F)C(F)(F)C(F)(F)C(F)(F)F | f
CC/C=C\CCOC(=O)c1ccccc1 | f
CCCCCCS | f
CCc1c(Br)c(Br)c(Br)c(Br)c1Br | t
CCCCCCCCCCCCCCCC[N+](C)(C)Cc1ccccc1 | f
CS(C)(=O)=O | f
O=C(O)C(F)(F)C(F)(F)C(F)(F)C(F)(F)C(F)(F)C(F)(F)C(F)(F)C(F)(F)C(F)(F)C(F)(F)C(F)(F)C(F)(F)F | f
COC(=O)C1CCC(C(=O)OC)CC1 (stereo unspecified) | f
CCC(=O)OCCc1ccccc1 | f
